- SYSTEM UNDER TEST: T1, SmTRα (Schistosoma mansoni, UniProt Q2TUU7 1-1115)
- T1 sequence: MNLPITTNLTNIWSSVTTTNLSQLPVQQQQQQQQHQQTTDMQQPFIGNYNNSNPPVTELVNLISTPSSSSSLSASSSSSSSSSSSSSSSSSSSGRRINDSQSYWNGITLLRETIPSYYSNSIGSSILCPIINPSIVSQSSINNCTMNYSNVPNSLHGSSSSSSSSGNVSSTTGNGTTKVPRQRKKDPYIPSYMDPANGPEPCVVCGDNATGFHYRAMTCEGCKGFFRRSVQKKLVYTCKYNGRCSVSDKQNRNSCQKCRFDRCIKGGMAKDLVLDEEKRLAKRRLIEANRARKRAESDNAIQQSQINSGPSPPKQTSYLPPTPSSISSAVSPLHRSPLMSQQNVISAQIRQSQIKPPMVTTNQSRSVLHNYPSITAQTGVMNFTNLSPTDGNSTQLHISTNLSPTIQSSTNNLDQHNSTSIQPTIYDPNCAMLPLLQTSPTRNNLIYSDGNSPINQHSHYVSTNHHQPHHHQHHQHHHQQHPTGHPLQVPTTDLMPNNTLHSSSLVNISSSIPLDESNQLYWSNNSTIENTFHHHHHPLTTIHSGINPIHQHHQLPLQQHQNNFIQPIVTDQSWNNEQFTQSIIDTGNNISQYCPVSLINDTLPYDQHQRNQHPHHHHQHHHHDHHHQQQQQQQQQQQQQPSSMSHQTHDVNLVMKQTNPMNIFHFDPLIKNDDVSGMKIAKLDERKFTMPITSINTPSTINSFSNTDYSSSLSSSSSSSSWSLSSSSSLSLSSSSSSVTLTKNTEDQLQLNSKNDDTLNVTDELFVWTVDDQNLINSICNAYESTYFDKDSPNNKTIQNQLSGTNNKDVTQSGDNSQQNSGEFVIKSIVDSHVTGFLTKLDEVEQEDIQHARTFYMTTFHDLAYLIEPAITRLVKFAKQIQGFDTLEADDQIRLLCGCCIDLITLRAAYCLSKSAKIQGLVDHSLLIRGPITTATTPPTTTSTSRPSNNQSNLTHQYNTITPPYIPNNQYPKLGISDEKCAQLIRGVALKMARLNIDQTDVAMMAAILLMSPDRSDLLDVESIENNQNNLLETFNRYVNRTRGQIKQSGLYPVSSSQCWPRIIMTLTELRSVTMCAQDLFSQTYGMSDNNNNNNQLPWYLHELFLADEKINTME
- ASSAY COMMENT: EMSA; monomer or homodimer; EMSA on ice 40 min, 15 µl with 3 µl 5x buffer (5x: 20% glycerol, 5 mM MgCl2, 2.5 mM EDTA, 2.5 mM DTT, 250 mM NaCl, 50 mM Tris-HCl pH 7.5, 0.25 mg/ml poly(dI-dC)); 6% native gel, 1x TBE, 4°C
- TEST PARAMETERS: protein: ivt; tags: none stated (pCITE-4a); label: 32P; blunt
ASSAY READOUT: binding result

Sample records with binding result:
{"BINDER": "DR2 (dsDNA) DNA 1: CCGTAAGGTCACAAGGTCACTCG DNA 2: CGAGTGACCTTGTGACCTTACGG", "binding result": "binds"}
{"BINDER": "half-site (dsDNA) DNA 1: GTACCGTAAGGTCACTCGCGT DNA 2: ACGCGAGTGACCTTACGGTAC", "binding result": "binds"}
{"BINDER": "DR4 (dsDNA) DNA 1: CCGTAAGGTCACAGGAGGTCACTCG DNA 2: CGAGTGACCTCCTGTGACCTTACGG", "binding result": "binds"}
{"BINDER": "DR1 (dsDNA) DNA 1: CCGTAAGGTCACAGGTCACTCG DNA 2: CGAGTGACCTGTGACCTTACGG", "binding result": "binds"}
{"BINDER": "DR5 (dsDNA) DNA 1: CCGTAAGGTCACCAGGAGGTCACTCG DNA 2: CGAGTGACCTCCTGGTGACCTTACGG", "binding result": "binds"}

Need binding result of DR3 (dsDNA) DNA 1: CCGTAAGGTCACAGAGGTCACTCG DNA 2: CGAGTGACCTCTGTGACCTTACGG , thanks. binds

What do you get for DR0 (dsDNA) DNA 1: CCGTAAGGTCAAGGTCACTCG DNA 2: CGAGTGACCTTGACCTTACGG ? binds

What do you get for Pal0 (dsDNA) DNA 1: CGCAAGGTCATGACCTCG DNA 2: CGAGGTCATGACCTTGCG ? binds
